- system: T1, recombinant extracellular domain (ECD) of human TF, amino acid 1-219 of the mature chain, C-terminal His6-tag (human, UniProt P13726 33-251)
- T1 construct: expressed in a mammalian system; used for ELISA and Biacore; biotinylated by NHS-ester for the Fab ELISA; also called His6-TF-ECD1-219; HumanTF1-219
- assay-info: Biacore
measured-property: pKd
As a rule, pKd stands for the negative log10 of the concentration, concentration in M.

Problem: Which pKd value belongs to M1605 (antibody, V domains shown, complete MAb; FR4 is its own entry; also called H168/L3) VH: EVQLVQSGAEVKKPGESLRISCKGSGYTFGTYWIEWVRQMPGKGLEWMGDILPGTGHTTYSPSFQGHVTISADKSISTAYLQWSSLKASDTAMYYCARSGYYGNSGFAYWGQGTLVTVSS VL: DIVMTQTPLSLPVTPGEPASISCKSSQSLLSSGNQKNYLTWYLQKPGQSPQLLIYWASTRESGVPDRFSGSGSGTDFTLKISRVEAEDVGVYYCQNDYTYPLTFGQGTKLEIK ?
Result: 9.19

Problem: Which pKd value belongs to M1598 (antibody, V domains shown, complete MAb; FR4 is its own entry; also called H137/L3) VH: EVQLVQSGAEVKKPGESLRISCKGSGYTFTPYWIEWVRQMPGKGLEWMGDILPGTGYTVYSPSFQGHVTISADKSISTAYLQWSSLKASDTAMYYCARSGYYGNSGFAYWGQGTLVTVSS VL: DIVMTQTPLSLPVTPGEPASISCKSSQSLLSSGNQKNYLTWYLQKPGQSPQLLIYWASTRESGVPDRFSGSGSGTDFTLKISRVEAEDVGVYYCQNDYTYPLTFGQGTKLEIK ?
Result: 9.48

Problem: Which pKd value belongs to M1584 (antibody, V domains shown, complete MAb; FR4 is its own entry; also called H173/L3) VH: EVQLVQSGAEVKKPGESLRISCKGSGYTFVTYWIEWVRQMPGKGLEWMGDILPGTGYTVYSPSFQGHVTISADKSISTAYLQWSSLKASDTAMYYCARSGYYGNSGFAYWGQGTLVTVSS VL: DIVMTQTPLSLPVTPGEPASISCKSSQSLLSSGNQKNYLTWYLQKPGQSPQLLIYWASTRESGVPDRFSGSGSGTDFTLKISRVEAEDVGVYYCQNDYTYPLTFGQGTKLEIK ?
Result: 9.52

Problem: Which pKd value belongs to M1643 (antibody, V domains shown, complete MAb; FR4 is its own entry; also called H22/L162) VH: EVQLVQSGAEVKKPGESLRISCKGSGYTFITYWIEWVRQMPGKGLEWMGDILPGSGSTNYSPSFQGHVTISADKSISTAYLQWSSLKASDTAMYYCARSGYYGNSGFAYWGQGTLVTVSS VL: DIVMTQTPLSLPVTPGEPASISCKSSQSLLYVYGQKNYLTWYLQKPGQSPQLLIYWASTRESGVPDRFSGSGSGTDFTLKISRVEAEDVGVYYCQNDFSWPLTFGQGTKLEIK ?
Result: 9.74

Problem: Which pKd value belongs to M1586 (antibody, V domains shown, complete MAb; FR4 is its own entry; also called H164/L3) VH: EVQLVQSGAEVKKPGESLRISCKGSGYTFPTYWIEWVRQMPGKGLEWMGDIIPGTGWTNYSPSFQGHVTISADKSISTAYLQWSSLKASDTAMYYCARSGYYGNSGFAYWGQGTLVTVSS VL: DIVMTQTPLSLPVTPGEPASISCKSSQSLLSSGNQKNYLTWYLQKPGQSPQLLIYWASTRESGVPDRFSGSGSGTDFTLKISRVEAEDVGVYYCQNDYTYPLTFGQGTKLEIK ?
Result: 9.11
